MEASUREMENT DESCRIPTION: Inhibition of p38 kinase
PARAMETER: pIC50
pIC50 (log units): -log10 of the concentration in mol/L.

Just so you know, measured pIC50 for Fc1ccc(-c2nc3[nH]ncc3c(-c3ccc(F)cc3)c2-c2ccncc2)cc1 came out at 6.79
